Every entry's value here was drawn from paper PMC9090415.

study_target: P. falciparum apicoplast DNA polymerase (Pf-apPOL) (Plasmodium falciparum, UniProt Q8ILY1)
Sequence (Q8ILY1 entry or part of it): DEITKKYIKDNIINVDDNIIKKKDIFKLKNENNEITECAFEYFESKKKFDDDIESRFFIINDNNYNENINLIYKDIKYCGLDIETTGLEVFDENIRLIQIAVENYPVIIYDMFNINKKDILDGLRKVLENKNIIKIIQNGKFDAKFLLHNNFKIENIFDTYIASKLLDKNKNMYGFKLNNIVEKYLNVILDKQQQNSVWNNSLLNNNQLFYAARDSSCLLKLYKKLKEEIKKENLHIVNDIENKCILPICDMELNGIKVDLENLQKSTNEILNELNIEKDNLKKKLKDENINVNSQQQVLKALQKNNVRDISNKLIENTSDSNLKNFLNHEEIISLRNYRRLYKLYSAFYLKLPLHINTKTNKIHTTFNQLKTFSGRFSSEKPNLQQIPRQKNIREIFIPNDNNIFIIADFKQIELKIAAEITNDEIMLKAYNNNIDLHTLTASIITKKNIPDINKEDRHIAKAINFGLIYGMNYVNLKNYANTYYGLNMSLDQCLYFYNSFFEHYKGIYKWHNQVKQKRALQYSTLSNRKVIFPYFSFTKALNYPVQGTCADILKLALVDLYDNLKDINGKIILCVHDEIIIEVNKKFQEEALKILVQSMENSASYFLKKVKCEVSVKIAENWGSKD
assay: Fluorescence-based high-throughput DNA polymerase assay (molecular beacon), primary screen and dose-response
Format: biochemical
applied_conditions: DRC-1; 10'; concentration 2.5
Please respond with reported % inhibition Apo pol 10' for every item in the list.
The reply should be a number in %, with the unit left off.

// recorded % inhibition Apo pol 10' for `N#CC(=NNc1cc(C(F)(F)F)cc(C(F)(F)F)c1)C(=O)c1ccco1` : 7.413

// recorded % inhibition Apo pol 10' for CN(C)C1C(c2ccccc2)=C(c2ccccc2)SC(c2ccccc2)C1[N+](=O)[O-] (stereo not drawn) : 4.043

// recorded % inhibition Apo pol 10' for `O=C1c2ccccc2C(=O)N1Oc1ccc([N+](=O)[O-])c([N+](=O)[O-])c1` : 7.12
